- target.of.assay: T1, rat NGF (rat, UniProt P25427 122-241)
- T1 construct: also called rN
- procedure.text: SPR (Biacore T200), 100 nM mAb on NGF chip, similarity to parent mAb
- Description: The region of an antibody responsible for antigen recognition represents the paratope. A paratope is created by a combination of amino acids in the complementarity determining regions (CDRs) of both the heavy and light chain variable regions. The binding between antibody and antigen is often mediated by side chains of CDR residues with side chains or carbohydrate moieties of the antigen. […]
Kindly state Percent Similarity Score (KD on rN) for each of the entries shown.
Reply with the number and its unit after it.

Quick note, Percent Similarity Score (KD on rN) for can48L2VH_F113A (antibody, V domains shown, CDR scanning mutant of ZTS-842 (48L2)) VH: EVQLVESGGDLVKPGGSLRLSCVASGFTFSTYGINWVRQAPGKGLQWVAYISSGGSSTYYADPVKGRFTISRDDAKNMLYLQMNSLRAEDTAIYYCAGSRYTYAYGGGYEFHAWGQGTLVTVSS VL: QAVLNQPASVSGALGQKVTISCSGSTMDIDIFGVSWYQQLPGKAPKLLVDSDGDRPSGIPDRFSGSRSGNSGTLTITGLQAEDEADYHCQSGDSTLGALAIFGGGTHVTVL landed at 32.2%

Quick note, Percent Similarity Score (KD on rN) for can9L12VL_L96A (antibody, V domains shown) VH: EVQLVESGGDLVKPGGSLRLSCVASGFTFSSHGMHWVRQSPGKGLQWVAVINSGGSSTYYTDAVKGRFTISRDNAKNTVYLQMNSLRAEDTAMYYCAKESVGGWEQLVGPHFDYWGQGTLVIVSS VL: QSVLTQPTSVSGSLGQRVTISCSGSTNNIGILGASWYQLFPGKAPKLLVYGNGNRPSGVPDRFSGADSGDSVTLTITGLQAEDEADYYCQSFDTTAGAHVFGGGTHLTVL landed at 37%

Quick note, Percent Similarity Score (KD on rN) for can9L12VH_G103A (antibody, V domains shown) VH: EVQLVESGGDLVKPGGSLRLSCVASGFTFSSHGMHWVRQSPGKGLQWVAVINSGGSSTYYTDAVKGRFTISRDNAKNTVYLQMNSLRAEDTAMYYCAKESVGAWEQLVGPHFDYWGQGTLVIVSS VL: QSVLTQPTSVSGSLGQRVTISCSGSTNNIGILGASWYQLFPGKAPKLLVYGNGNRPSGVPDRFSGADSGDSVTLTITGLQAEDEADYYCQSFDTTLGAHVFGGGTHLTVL landed at 62.5%
